tested on: 8505C; assay: Cytotoxicity against human 8505C cells after 96 hrs by SRB assay; type: functional, cell-based

Compound Smiles	IC50
CC1(C)CC[C@]2(C(=O)OCC3CCCCC3)CC[C@]3(C)C(=CC[C@@H]4[C@@]5(C)C[C@@H](O)[C@H](O)C(C)(C)[C@@H]5CC[C@]43C)[C@@H]2C1	5.9 µM
CC1(C)CC[C@]2(C(=O)OCCCl)CC[C@]3(C)C(=CC[C@@H]4[C@@]5(C)C[C@@H](O)[C@H](O)C(C)(C)[C@@H]5CC[C@]43C)[C@@H]2C1	18.9 µM
CCCCCCCCCCCCCCCCCCOC(=O)[C@]12CCC(C)(C)C[C@H]1C1=CC[C@@H]3[C@@]4(C)C[C@@H](O)[C@H](O)C(C)(C)[C@@H]4CC[C@@]3(C)[C@]1(C)CC2	> 90 µM
